Target: T1, Cyno NRP-1 His (cynomolgus monkey, UniProt O14786 22-856 (human entry), limits assumed)
T1 construct: Recombinant monomeric protein; also called cynomolgus monkey NRP-1-His; cNRP-1; not shown: His tag
T1 chain: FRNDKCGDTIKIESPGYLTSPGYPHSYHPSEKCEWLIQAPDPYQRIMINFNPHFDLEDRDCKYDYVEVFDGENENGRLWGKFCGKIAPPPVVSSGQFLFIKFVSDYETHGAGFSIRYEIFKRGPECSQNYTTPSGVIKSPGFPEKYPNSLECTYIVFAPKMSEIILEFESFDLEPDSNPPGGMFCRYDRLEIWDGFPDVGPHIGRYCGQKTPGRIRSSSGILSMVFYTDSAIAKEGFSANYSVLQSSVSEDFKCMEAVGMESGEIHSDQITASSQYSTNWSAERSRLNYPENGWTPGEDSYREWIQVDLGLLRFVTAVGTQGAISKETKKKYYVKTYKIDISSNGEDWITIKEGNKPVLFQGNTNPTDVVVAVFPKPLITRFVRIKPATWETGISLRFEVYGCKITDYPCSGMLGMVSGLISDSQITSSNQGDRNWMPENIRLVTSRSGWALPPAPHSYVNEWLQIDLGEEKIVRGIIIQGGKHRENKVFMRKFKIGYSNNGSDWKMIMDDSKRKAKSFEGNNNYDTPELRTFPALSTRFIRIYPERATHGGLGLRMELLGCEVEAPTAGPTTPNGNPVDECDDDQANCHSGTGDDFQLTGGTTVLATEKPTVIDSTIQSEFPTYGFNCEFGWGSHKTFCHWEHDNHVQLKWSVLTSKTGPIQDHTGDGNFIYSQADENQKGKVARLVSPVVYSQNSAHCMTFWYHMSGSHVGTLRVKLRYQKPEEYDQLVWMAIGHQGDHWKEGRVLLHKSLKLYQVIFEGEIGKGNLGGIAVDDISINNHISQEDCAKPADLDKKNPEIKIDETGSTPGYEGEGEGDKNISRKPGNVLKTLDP
Test: BLI Octet QKe, IgG4 S228P on AHC sensor, multi-concentration monomeric antigen, global 1:1 fit
measure: Kd (nM)

binder	measure	experimental-value
MAB12 IgG4 S228P (antibody, V domains shown) VH: EVQLLESGGGLVQPGGSLRLSCAASGFTFSSVAMVWVRQAPGKGLEWVSAISGSGGATYYADSVEGRFTISRDNSKNTLYLQMNSLRAEDTAVYYCAKDPGYDSSRYYYSNYGMDVWGQGTTVTVSS VL: DIQMTQSPSSLSASVGDRVTITCRASQSISSYLNWYQQKPGKAPKLLIYGASSLQSGVPSRFSGSGSGTDFTLTISSLQPEDFATYYCQQTYSLYTFGGGTKVEIKR	Kd	0.19
MAB3 IgG4 S228P (antibody, V domains shown) VH: QAQLVQSGAEVKKPGASVKVSCKASGYTFSRYYMHWVRQAPGQGLEWMGIINPLGGSTLYAQKFQGRVTMTRDTSTSTVYMELSSLRSEDTAVYYCARDLGYYGSGMHAWGQGTLVTVSS VL: DIQMTQSPSSVSASVGDRVTITCRASQGISRWLAWYQQKPGKAPKLLIYAASSLQSGVPSRFSGSGSGTDFTLTISSLQPEDFATYYCQQANLLPFTFGGGTKVEIKR	Kd	7.3
MAB14 IgG4 S228P (antibody, V domains shown) VH: QVQLQQWGAGLLKPSETLSLTCAVYGGSFRGYYWEWSRQPPGKGLEWIGEISHSGSTNYNPSLKSRVTISVDTSKNQFSLKLSPVTAADTAVYYCARARPYREPYGMDVWGQGTTVTVSS VL: DIQLTQSPSSVSASVGDRVTITCRASQDISSWLAWYQQKPGKAPKLLIYAASSLQSGVPSRFSGSGSGTDFTLTISSLQPEDFATYYCQQELAFPRTFGGGTKVEIKR	Kd	0.74
MAB5 IgG4 S228P (antibody, V domains shown) VH: QVQLVQSGAEVKKPGASVKVSCKASGYTFTSYYMHWVRQAPGQGLEWMGIINPQGGDTSYAQKFQGRVTMTRDTSTSTVYMELSSLRSEDTAVYYCARDRGMYYASGFGPWGQGTLVTVSS VL: EIVMTQSPGTLSLSPGERATLSCRASQSVSSSYLAWYQQKPGQAPRLLIYGASNRATGIPDRFSGSGSGTDFTLTISRLEPEDFAVYYCQQLSSFPITFGGGTKVEIKR	Kd	12

Sourced from patent US20190119389A1
